Assay: activity coefficient (dimensionless); of the first substance listed, at infinite dilution; xn = mol fraction of the nth substance listed
Details: 298.15 K; Liquid; Chromatography; x1 = 0
result type: activity coefficient
Number only, no unit.

Form field: reported activity coefficient of C1CCCCCC1 [cycloheptane] + CCn1cc[n+](C)c1.N#C[B-](C#N)(C#N)C#N 21.9

Please report the recorded activity coefficient for Cc1ccccc1C [1,2-dimethylbenzene] + CCn1cc[n+](C)c1.N#C[B-](C#N)(C#N)C#N . 2.17

Item C=CCCCCCC [oct-1-ene] + CCn1cc[n+](C)c1.N#C[B-](C#N)(C#N)C#N has what recorded activity coefficient? 35

Which activity coefficient value is on record for O [water] + CCn1cc[n+](C)c1.N#C[B-](C#N)(C#N)C#N ? 2.24

Query (compound): CCCCCCCC [octane] + CCn1cc[n+](C)c1.N#C[B-](C#N)(C#N)C#N ; field requested: activity coefficient 83.2

What does the data say about its activity coefficient? Entry: C#CCCCCC [1-heptyne] + CCn1cc[n+](C)c1.N#C[B-](C#N)(C#N)C#N 5.74

// returns reported activity coefficient for input Cc1ccccc1 [toluene] + CCn1cc[n+](C)c1.N#C[B-](C#N)(C#N)C#N 1.65

Would you kindly share the measured activity coefficient for CO [methanol] + CCn1cc[n+](C)c1.N#C[B-](C#N)(C#N)C#N ? 1.1

====

Kindly supply the reported activity coefficient values for the records listed here.
Experiment: activity coefficient (dimensionless); of the first substance listed, at infinite dilution; xn = mol fraction of the nth substance listed
Settings: 358.15 K; Liquid; Chromatography; x1 = 0
# output: bare number, no unit

May I ask what activity coefficient has been recorded for CCCCCCCC [octane] + CCn1cc[n+](C)c1.N#C[B-](C#N)(C#N)C#N ? 46

I'd like to know its activity coefficient. The compound in question is CCCCCCCCC [nonane] + CCn1cc[n+](C)c1.N#C[B-](C#N)(C#N)C#N 66.3

activity coefficient lookup needed for Cc1ccccc1 [toluene] + CCn1cc[n+](C)c1.N#C[B-](C#N)(C#N)C#N , thanks. 1.76

Entry C#CCCCC [1-hexyne] + CCn1cc[n+](C)c1.N#C[B-](C#N)(C#N)C#N has what activity coefficient? 3.73

Using the record for O [water] + CCn1cc[n+](C)c1.N#C[B-](C#N)(C#N)C#N , report its activity coefficient. 1.29

Suppose we examine the compound CC1CCCCC1 [methylcyclohexane] + CCn1cc[n+](C)c1.N#C[B-](C#N)(C#N)C#N ; what activity coefficient value has been reported? 15.9

Please report the recorded activity coefficient for CC(C)CC(C)(C)C [2,2,4-trimethylpentane] + CCn1cc[n+](C)c1.N#C[B-](C#N)(C#N)C#N . 36.7

Give the measured activity coefficient of CCCCO [butan-1-ol] + CCn1cc[n+](C)c1.N#C[B-](C#N)(C#N)C#N . 1.53

Look up activity coefficient: CO [methanol] + CCn1cc[n+](C)c1.N#C[B-](C#N)(C#N)C#N 0.748

Sample Cc1ccccc1C [1,2-dimethylbenzene] + CCn1cc[n+](C)c1.N#C[B-](C#N)(C#N)C#N — what was its activity coefficient? 2.25

Which activity coefficient is reported for this compound? CCCCCC [hexane] + CCn1cc[n+](C)c1.N#C[B-](C#N)(C#N)C#N 21.8

// activity coefficient lookup, key: CCOCC [diethyl ether] + CCn1cc[n+](C)c1.N#C[B-](C#N)(C#N)C#N 2.77

Need activity coefficient of CCCO [propan-1-ol] + CCn1cc[n+](C)c1.N#C[B-](C#N)(C#N)C#N , thanks. 1.21

Returns the measured activity coefficient for the input compound. Input: CC(C)=O [acetone] + CCn1cc[n+](C)c1.N#C[B-](C#N)(C#N)C#N 0.43

# query: activity coefficient of entry C=CCCC [1-pentene] + CCn1cc[n+](C)c1.N#C[B-](C#N)(C#N)C#N 7.52

Origin of the recorded values: the NIST ThermoML archive (doi:10.1016/j.jct.2011.02.012)
